Molecular target: fIL, fluorescently labelled H14 foldamer IL
Assay: fluorescence polarisation; direct FP: S100 protein diluted in 50 nM labeled foldamer, 20 mM HEPES pH 7.5, 150 mM NaCl, 1 mM CaCl2, 0.5 mM TCEP, 0.01% Tween20; quadratic fit (ProFit); detection threshold Kd 1 mM
pKd: −log10 of the molar value.
Provide the reported pKd of each item.

pKd lookup needed for S100A16 (natural protein) MSDCYTELEKAVIVLVENFYKYVSKYSLVKNKISKSSFREMLQKELNHMLSDTGNRKAADKLIQNLDANHDGRISFDEYWTLIGGITGPIAKLIHEQEQQSSS , thanks.
< 3.00

So what's the measured pKd for this one? S100Z (natural protein) MPTQLEMAMDTMIRIFHRYSGKERKRFKLSKGELKLLLQRELTEFLSCQKETQLVDKIVQDLDANKDNEVDFNEFVVMVAALTVACNDYFVEQLKKKGK
< 3.00
